Measurement record for Cytochrome P450 2C19 (Homo sapiens); quantity recorded: IC50.

Examples from the recorded data:
## Task Form: Entry = "C[C@H](Oc1ccc(C#N)cc1C(=O)N1Cc2cn(-c3ccccc3F)nc2C1)C(F)(F)F" | System = Cytochrome P450 2C19 (Homo sapiens) | IC50 = ____
## Result > 10 µM

## Task Form: Entry = "CCS(=O)(=O)c1ccc(O[C@@H](C)C(F)(F)F)c(C(=O)N2Cc3cn(-c4ccccc4F)nc3C2)c1" | System = Cytochrome P450 2C19 (Homo sapiens) | IC50 = ____
## Result > 10 µM

## Task Form: Entry = "CC(C)S(=O)(=O)c1ccc(O[C@@H](C)C(F)(F)F)c(C(=O)N2Cc3cn(-c4ccccc4)nc3C2)c1" | System = Cytochrome P450 2C19 (Homo sapiens) | IC50 = ____
## Result > 10 µM

Now turn to the next compound.
## Task Form: Entry = "CS(=O)(=O)c1ccc(OCC2CC2)c(C(=O)N2Cc3cn(-c4ccccc4F)nc3C2)c1" | System = Cytochrome P450 2C19 (Homo sapiens) | IC50 = ____
## Result > 10 µM

----------
assayed-target: Sodium- and chloride-dependent glycine transporter 1 (Homo sapiens, UniProt P48067)
Sequence (P48067 whole entry): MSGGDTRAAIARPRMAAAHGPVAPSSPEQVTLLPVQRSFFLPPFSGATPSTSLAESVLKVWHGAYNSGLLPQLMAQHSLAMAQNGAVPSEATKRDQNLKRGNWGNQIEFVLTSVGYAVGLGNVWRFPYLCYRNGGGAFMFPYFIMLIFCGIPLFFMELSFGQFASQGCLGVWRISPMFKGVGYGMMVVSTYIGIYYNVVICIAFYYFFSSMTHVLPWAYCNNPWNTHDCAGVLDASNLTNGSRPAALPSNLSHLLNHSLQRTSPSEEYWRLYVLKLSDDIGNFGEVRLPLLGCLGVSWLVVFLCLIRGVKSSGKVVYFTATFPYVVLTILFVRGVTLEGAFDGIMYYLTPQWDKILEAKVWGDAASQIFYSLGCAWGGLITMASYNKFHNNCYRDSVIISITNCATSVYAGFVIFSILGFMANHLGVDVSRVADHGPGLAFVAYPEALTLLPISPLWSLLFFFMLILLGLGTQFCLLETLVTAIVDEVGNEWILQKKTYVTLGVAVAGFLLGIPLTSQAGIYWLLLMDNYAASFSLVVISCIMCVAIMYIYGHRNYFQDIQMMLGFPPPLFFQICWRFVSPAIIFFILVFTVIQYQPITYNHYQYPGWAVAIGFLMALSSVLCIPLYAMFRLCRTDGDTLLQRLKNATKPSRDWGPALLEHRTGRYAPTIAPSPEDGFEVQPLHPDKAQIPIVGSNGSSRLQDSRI
test-protocol: Inhibition of recombinant human GlyT1c expressed in HEK293 cells assessed as reduction in [14C]glycine uptake after 2 hrs by microbeta scintillation counting method
Assay type: cell-based
measured-attribute: IC50 (µM)

## Task Endpoint output: IC50 of "C[C@H](Oc1ccc(C#N)cc1C(=O)N1Cc2cn(C3CCCC3)nc2C1)C(F)(F)F" . Value?
## Result 0.21

(a) Cc1cc(-n2cc3c(n2)CN(C(=O)c2cc(C#N)ccc2-c2cccc(F)c2)C3)ccn1
(b) CC(C)Oc1ccc(C#N)cc1C(=O)N1Cc2cn(-c3cncc(F)c3)nc2C1
(c) CCS(=O)(=O)c1ccc(O[C@@H](C)C(F)(F)F)c(C(=O)N2Cc3cn(-c4ccnc(C)c4)nc3C2)c1
(d) Cc1cccc(-n2cc3c(n2)CN(C(=O)c2cc(S(C)(=O)=O)ccc2O[C@@H](C)C(F)(F)F)C3)c1
## Task I would appreciate it if you could sort these 4 compounds by IC50, starting from the smallest number. Form entry: labels listed in requested order.
## Result c, d, a, b
(c: 0.012 µM, d: 0.023 µM, a: 0.055 µM, b: 0.113 µM)

(a) CCS(=O)(=O)c1ccc(O[C@@H](C)C(F)(F)F)c(C(=O)N2Cc3cn(-c4cncc(F)c4)nc3C2)c1
(b) Cc1cc(-n2cc3c(n2)CN(C(=O)c2cc(C#N)ccc2O[C@@H](C)C(F)(F)F)C3)ccn1
## Task // which entry reports the smaller IC50, a or b ? Please indicate the selected item by its label.
## Result b
(b: 0.018 µM, a: 0.027 µM)

(I) CS(=O)(=O)c1ccc(-c2cccc(F)c2)c(C(=O)N2Cc3cn(-c4cncc(F)c4)nc3C2)c1
(II) Cc1cc(-n2cc3c(n2)CN(C(=O)c2cc(C#N)ccc2OCC2CC2)C3)ccn1
## Task // which entry reports the smaller IC50, I or II ? Please indicate the selected item by its label.
## Result I

----------
test-protocol: Drug uptake in Sprague-Dawley rat brain at 10 mg/kg, po after 90 mins by LC-MS/MS analysis
Type: ADME, organism-based
conditions-used: read-out: Drug uptake
measured-attribute: concentration at […] (nM)
Supply the numeric figure in nM, leaving out any unit text.

## Task Endpoint output: concentration at […] of "CS(=O)(=O)c1ccc(OCC2CC2)c(C(=O)N2Cc3cn(-c4ccccc4F)nc3C2)c1" . Value?
## Result 605
